Attribute: Regional activity wash-out: % decrease from peak to last scan, Cingulate Cortex
test system: SERT; experiment: Baboon PET imaging: brain uptake, kinetic analysis and SERT parameters; format: in vivo; settings: last scan 90 minutes; baboons, mean ± SD of four experiments
Field: numeric (%). Do not append units.

Before answering, review these 4 worked examples.
{"columns": ["MOLECULE", "ENDPOINT VALUE"],
 "data": [
  ["CN(C)Cc1ccccc1Sc1ccc(C#N)cc1N [[^11C]DASB]", 64],
  ["CN([11CH3])Cc1ccccc1Sc1ccc(CF)cc1N [[^11C]AFM]", 43],
  ["CN(C)Cc1ccccc1Sc1ccc(Br)cc1N [[^11C]DAPA]", 19],
  ["CN(C)Cc1ccccc1Sc1ccc(I)cc1N [[^11C]ADAM]", 34]
]}

Let us examine a further case.
Task item: Give SERT Regional activity wash-out: % decrease from peak to last scan, Cingulate Cortex for the following molecule: [11CH3]Sc1ccc([C@H]2CN3CCC[C@H]3c3ccccc32)cc1 [[^11C]McN 5652]
Reply: 34
